B1: Storkhead-box protein 2, residues 64 to 141; numbered along this chain, Q9P2F5 (parent)
chain: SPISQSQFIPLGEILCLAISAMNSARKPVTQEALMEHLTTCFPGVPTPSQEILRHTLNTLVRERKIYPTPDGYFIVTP

variants of: B1; assay: abundance fitness (aPCA) (normalised: wild type 0, dead -1); higher = more abundant; growth selection in yeast, the domain comes from the species named; conditions: Homo sapiens
Is abundance fitness at least -0.08? Then Fulfilled. If not, Not fulfilled.

Q. Hello, I need to know if SPISQSQFIPLGEILCLIISAMNSARKPVTQEALMEHLTTCFPGVPTPSQEILRHTLNTLVRERKIYPTPDGYFIVTP [A18I] has measured abundance fitness not below -0.08. Thanks!
A. Not fulfilled

Q. Hello, I need to know if SPISQSQFIPLGEILCLAISAMNSARKPVTQEALMEHLTTCFPGVPTPSQYILRHTLNTLVRERKIYPTPDGYFIVTP [E51Y] has measured abundance fitness not below -0.08. Thanks!
A. Not fulfilled

Q. Hello, I need to know if SPISQSQFIPLGEILCLAISAMNSARKMVTQEALMEHLTTCFPGVPTPSQEILRHTLNTLVRERKIYPTPDGYFIVTP [P28M] has measured abundance fitness not below -0.08. Thanks!
A. Fulfilled

Q. Hello, I need to know if SPISQSQFIPLGDILCLAISAMNSARKPVTQEALMEHLTTCFPGVPTPSQEILRHTLNTLVRERKIYPTPDGYFIVTP [E13D] has measured abundance fitness not below -0.08. Thanks!
A. Fulfilled

Q. Hello, I need to know if SPISQSQFEPLGEILCLAISAMNSARKPVTQEALMEHLTTCFPGVPTPSQEILRHTLNTLVRERKIYPTPDGYFIVTP [I9E] has measured abundance fitness not below -0.08. Thanks!
A. Fulfilled

Q. Hello, I need to know if SPISQSQFIPLGEILCLAISAMNSARKPVTQEALMEHLTTCFPGVPTPSQEILRHMLNTLVRERKIYPTPDGYFIVTP [T56M] has measured abundance fitness not below -0.08. Thanks!
A. Fulfilled

Q. Hello, I need to know if SPISQSQFIPLGEILCLAISAMNSARKPVTQEALMEHLTTCFPGVPTPSQTILRHTLNTLVRERKIYPTPDGYFIVTP [E51T] has measured abundance fitness not below -0.08. Thanks!
A. Not fulfilled

Q. Hello, I need to know if SPISQSQFIPLGEILCLQISAMNSARKPVTQEALMEHLTTCFPGVPTPSQEILRHTLNTLVRERKIYPTPDGYFIVTP [A18Q] has measured abundance fitness not below -0.08. Thanks!
A. Not fulfilled

Q. Hello, I need to know if SPISQSQFIPLGEILCLAISAMNSARKPVTQEALMEHLTTCFPGYPTPSQEILRHTLNTLVRERKIYPTPDGYFIVTP [V45Y] has measured abundance fitness not below -0.08. Thanks!
A. Fulfilled

Q. Hello, I need to know if SPISQSQFIPLGEILCLAISAMNSARKPVTQEALMEHLTTCFPGVPTPSQEILRHTLNTLVRERKIYPTPDGYFITTP [V76T] has measured abundance fitness not below -0.08. Thanks!
A. Fulfilled

Q. Hello, I need to know if SPISQSQFIPLGEILCLAISAMNSARKPVTQEALMEHLTTCFPGVPTPSQEILRHTLNTLVMERKIYPTPDGYFIVTP [R62M] has measured abundance fitness not below -0.08. Thanks!
A. Fulfilled

Q. Hello, I need to know if SPISQSQFIPLGEILCLAISAMNSARKPVTQEALMEHLTTCFPGVPTPSQEILNHTLNTLVRERKIYPTPDGYFIVTP [R54N] has measured abundance fitness not below -0.08. Thanks!
A. Fulfilled

Q. Hello, I need to know if SPISQSQFIPLGEILCLAISAHNSARKPVTQEALMEHLTTCFPGVPTPSQEILRHTLNTLVRERKIYPTPDGYFIVTP [M22H] has measured abundance fitness not below -0.08. Thanks!
A. Not fulfilled

Q. Hello, I need to know if SPISQSQFIPLGEILCLAISAMNSARKPVTQHALMEHLTTCFPGVPTPSQEILRHTLNTLVRERKIYPTPDGYFIVTP [E32H] has measured abundance fitness not below -0.08. Thanks!
A. Fulfilled

Q. Hello, I need to know if SPISQSQFIPLGEILCLAISAMNSARKPVTQEALMEHLTTCFPGVPTPSCEILRHTLNTLVRERKIYPTPDGYFIVTP [Q50C] has measured abundance fitness not below -0.08. Thanks!
A. Fulfilled

Q. Hello, I need to know if SPISQSQFIPLGEILCLAISAMNSARKPVTQEALMECLTTCFPGVPTPSQEILRHTLNTLVRERKIYPTPDGYFIVTP [H37C] has measured abundance fitness not below -0.08. Thanks!
A. Not fulfilled

Q. Hello, I need to know if SPISQSQFIPLGEILCLAISAMNSARKPVTQEALMEHLTTCFPGVPTPSQEILRHTLNTLVRERKIYPTPDGYFCVTP [I75C] has measured abundance fitness not below -0.08. Thanks!
A. Fulfilled

Q. Hello, I need to know if SPISQSQFIPLGEILCLAISAMNSARKPVTQEALMEHLTTCFPGPPTPSQEILRHTLNTLVRERKIYPTPDGYFIVTP [V45P] has measured abundance fitness not below -0.08. Thanks!
A. Not fulfilled

Q. Hello, I need to know if SPISQSQFIPLGEILCLAISAMNSARKPVTQEALLEHLTTCFPGVPTPSQEILRHTLNTLVRERKIYPTPDGYFIVTP [M35L] has measured abundance fitness not below -0.08. Thanks!
A. Fulfilled

Q. Hello, I need to know if SPISQSQFIPLGEILCLAISAMNSARKPVTQEALMNHLTTCFPGVPTPSQEILRHTLNTLVRERKIYPTPDGYFIVTP [E36N] has measured abundance fitness not below -0.08. Thanks!
A. Fulfilled

Q. Hello, I need to know if SPISQSQFIPLGEILCLALSAMNSARKPVTQEALMEHLTTCFPGVPTPSQEILRHTLNTLVRERKIYPTPDGYFIVTP [I19L] has measured abundance fitness not below -0.08. Thanks!
A. Not fulfilled

Q. Hello, I need to know if SPISQSQRIPLGEILCLAISAMNSARKPVTQEALMEHLTTCFPGVPTPSQEILRHTLNTLVRERKIYPTPDGYFIVTP [F8R] has measured abundance fitness not below -0.08. Thanks!
A. Fulfilled

Q. Hello, I need to know if SPISQSQFIILGEILCLAISAMNSARKPVTQEALMEHLTTCFPGVPTPSQEILRHTLNTLVRERKIYPTPDGYFIVTP [P10I] has measured abundance fitness not below -0.08. Thanks!
A. Fulfilled

Q. Hello, I need to know if SPISQSQFIPLGEILCLAISAMNSARKPVTQEALMEHLTTCFPGVPTPSQEILRHTLNTLARERKIYPTPDGYFIVTP [V61A] has measured abundance fitness not below -0.08. Thanks!
A. Fulfilled

Q. Hello, I need to know if SPISQSQFIPLGEILCLAISAMNSARKNVTQEALMEHLTTCFPGVPTPSQEILRHTLNTLVRERKIYPTPDGYFIVTP [P28N] has measured abundance fitness not below -0.08. Thanks!
A. Fulfilled

Q. Hello, I need to know if SPISQSAFIPLGEILCLAISAMNSARKPVTQEALMEHLTTCFPGVPTPSQEILRHTLNTLVRERKIYPTPDGYFIVTP [Q7A] has measured abundance fitness not below -0.08. Thanks!
A. Fulfilled

Q. Hello, I need to know if SPISQSQFIPLGEILCLAISAMNSARKPVTQEALQEHLTTCFPGVPTPSQEILRHTLNTLVRERKIYPTPDGYFIVTP [M35Q] has measured abundance fitness not below -0.08. Thanks!
A. Fulfilled

Q. Hello, I need to know if SPISQSQFIDLGEILCLAISAMNSARKPVTQEALMEHLTTCFPGVPTPSQEILRHTLNTLVRERKIYPTPDGYFIVTP [P10D] has measured abundance fitness not below -0.08. Thanks!
A. Not fulfilled

Q. Hello, I need to know if SPISQSQFILLGEILCLAISAMNSARKPVTQEALMEHLTTCFPGVPTPSQEILRHTLNTLVRERKIYPTPDGYFIVTP [P10L] has measured abundance fitness not below -0.08. Thanks!
A. Fulfilled

Q. Hello, I need to know if SPISQSQFIPLGEILCLAISAMNSARKPVTQEALMEHLTTDFPGVPTPSQEILRHTLNTLVRERKIYPTPDGYFIVTP [C41D] has measured abundance fitness not below -0.08. Thanks!
A. Fulfilled

Q. Hello, I need to know if SPISQSQFIPLGEILCLAISAMNSARKPVTQEALMEHLTTCFPGVPTPSQEILRHTLNTLVRERKIYPTGDGYFIVTP [P70G] has measured abundance fitness not below -0.08. Thanks!
A. Fulfilled

Q. Hello, I need to know if SPISQSQFIPLGEILCLAISAMNSARKPVTQEALMEHLTTCFPGVPTPSQEILRHTLNTLVRGRKIYPTPDGYFIVTP [E63G] has measured abundance fitness not below -0.08. Thanks!
A. Fulfilled

Q. Hello, I need to know if SPISQSQFIPLGEILCLAISAMNSARKPVTQEALMEHLTTCFPGVPKPSQEILRHTLNTLVRERKIYPTPDGYFIVTP [T47K] has measured abundance fitness not below -0.08. Thanks!
A. Fulfilled

Q. Hello, I need to know if SPISQSQFIPLGEILCLAISAMNSARKPVTQEALMEHLTTCFPGVPTPSQEILRHTLNTLVRERKIYPTPTGYFIVTP [D71T] has measured abundance fitness not below -0.08. Thanks!
A. Fulfilled

Q. Hello, I need to know if SPISQSQFHPLGEILCLAISAMNSARKPVTQEALMEHLTTCFPGVPTPSQEILRHTLNTLVRERKIYPTPDGYFIVTP [I9H] has measured abundance fitness not below -0.08. Thanks!
A. Not fulfilled

Q. Hello, I need to know if SPISQSQFIPLGEILCLAISAMNSARKPVTQEALMEHLTTCFPGVPTPSQEILRHTLNTLVRERRIYPTPDGYFIVTP [K65R] has measured abundance fitness not below -0.08. Thanks!
A. Fulfilled

Q. Hello, I need to know if SPISQSQFIPLGEILCLAISAMNSAREPVTQEALMEHLTTCFPGVPTPSQEILRHTLNTLVRERKIYPTPDGYFIVTP [K27E] has measured abundance fitness not below -0.08. Thanks!
A. Fulfilled

Q. Hello, I need to know if SPISQSQFIPLGEILCLAISAMNSARKPVTQEALMEGLTTCFPGVPTPSQEILRHTLNTLVRERKIYPTPDGYFIVTP [H37G] has measured abundance fitness not below -0.08. Thanks!
A. Not fulfilled

Q. Hello, I need to know if SPISQSQFIPLGEILCLAISAMNSARKPVTQEALMEHLTTCFPGVPTPSQEILRHTINTLVRERKIYPTPDGYFIVTP [L57I] has measured abundance fitness not below -0.08. Thanks!
A. Fulfilled

Q. Hello, I need to know if SPISQSQFIPLGEILCLAISAMNSARKPVTQEALMEHLTLCFPGVPTPSQEILRHTLNTLVRERKIYPTPDGYFIVTP [T40L] has measured abundance fitness not below -0.08. Thanks!
A. Fulfilled

Q. Hello, I need to know if SPISQSQFIPLGEILCLAISAMNSARKPVTQYALMEHLTTCFPGVPTPSQEILRHTLNTLVRERKIYPTPDGYFIVTP [E32Y] has measured abundance fitness not below -0.08. Thanks!
A. Not fulfilled

Q. Hello, I need to know if SPISQSQFIPLGEILCLAISAMNSARKPVTQEALMEHLTTCFPGVPTPSQEILRFTLNTLVRERKIYPTPDGYFIVTP [H55F] has measured abundance fitness not below -0.08. Thanks!
A. Fulfilled

Q. Hello, I need to know if SPISQSQFIPLGEILCLAISAMNSARKPVTQEALMEHLTTHFPGVPTPSQEILRHTLNTLVRERKIYPTPDGYFIVTP [C41H] has measured abundance fitness not below -0.08. Thanks!
A. Not fulfilled

Q. Hello, I need to know if SPISQSQFIPLGEILCLAISAMNSARKPVTQEALMEHLTTCFPGVPTPSQEILRHTLCTLVRERKIYPTPDGYFIVTP [N58C] has measured abundance fitness not below -0.08. Thanks!
A. Fulfilled

Q. Hello, I need to know if SHISQSQFIPLGEILCLAISAMNSARKPVTQEALMEHLTTCFPGVPTPSQEILRHTLNTLVRERKIYPTPDGYFIVTP [P2H] has measured abundance fitness not below -0.08. Thanks!
A. Fulfilled

Q. Hello, I need to know if SPISQSQFIPLGEILCLAISAMNSARKPVTQEALMEHLTTCFPGVPTPSQEILRHTLNTLVRERKIYPTPDGYFMVTP [I75M] has measured abundance fitness not below -0.08. Thanks!
A. Fulfilled

Q. Hello, I need to know if SPISQSQFIPLGEILCLAISAMNSARKPVTQEALMEHLTTCFPGVPTPSQVILRHTLNTLVRERKIYPTPDGYFIVTP [E51V] has measured abundance fitness not below -0.08. Thanks!
A. Not fulfilled

Q. Hello, I need to know if SPISQSQFICLGEILCLAISAMNSARKPVTQEALMEHLTTCFPGVPTPSQEILRHTLNTLVRERKIYPTPDGYFIVTP [P10C] has measured abundance fitness not below -0.08. Thanks!
A. Not fulfilled

Q. Hello, I need to know if SPISQSQFIPLGEILCLAISAMNSARKPVTQEALMEHLTTNFPGVPTPSQEILRHTLNTLVRERKIYPTPDGYFIVTP [C41N] has measured abundance fitness not below -0.08. Thanks!
A. Fulfilled

Q. Hello, I need to know if SPISQSQFIPLGEILCLAISAMESARKPVTQEALMEHLTTCFPGVPTPSQEILRHTLNTLVRERKIYPTPDGYFIVTP [N23E] has measured abundance fitness not below -0.08. Thanks!
A. Not fulfilled

Q. Hello, I need to know if SPISQSQFIPLGEILCLAISAMNSARKLVTQEALMEHLTTCFPGVPTPSQEILRHTLNTLVRERKIYPTPDGYFIVTP [P28L] has measured abundance fitness not below -0.08. Thanks!
A. Not fulfilled

Q. Hello, I need to know if SPISQSQFIPLGEILCLAISAMNSARKPVTGEALMEHLTTCFPGVPTPSQEILRHTLNTLVRERKIYPTPDGYFIVTP [Q31G] has measured abundance fitness not below -0.08. Thanks!
A. Fulfilled

Q. Hello, I need to know if SPISQSQAIPLGEILCLAISAMNSARKPVTQEALMEHLTTCFPGVPTPSQEILRHTLNTLVRERKIYPTPDGYFIVTP [F8A] has measured abundance fitness not below -0.08. Thanks!
A. Fulfilled

Q. Hello, I need to know if SPISQSQFIPLGEILCLAISAMNSARKPVTQEALMEHLTTCFPGVPTPSQEILRHTLNTLVRERKIYYTPDGYFIVTP [P68Y] has measured abundance fitness not below -0.08. Thanks!
A. Not fulfilled
